biological target: FGFR3 (UniProt P22607); assay: phosphorylation enrichment, bacterial display (enrichment ratio); higher = better substrate or ligand; peptides without Tyr show the background;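 note: 11-residue human phosphosite peptides and single-mutation variants displayed on the E. coli surface, counted by deep sequencing, each peptide's frequency after selection divided by its frequency in the unselected input library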;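 note: frequency after pTyr selection over input frequency; kinase dosed for 20-30% of maximal phosphorylation in three min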
Sequence (P22607 whole entry, looked up): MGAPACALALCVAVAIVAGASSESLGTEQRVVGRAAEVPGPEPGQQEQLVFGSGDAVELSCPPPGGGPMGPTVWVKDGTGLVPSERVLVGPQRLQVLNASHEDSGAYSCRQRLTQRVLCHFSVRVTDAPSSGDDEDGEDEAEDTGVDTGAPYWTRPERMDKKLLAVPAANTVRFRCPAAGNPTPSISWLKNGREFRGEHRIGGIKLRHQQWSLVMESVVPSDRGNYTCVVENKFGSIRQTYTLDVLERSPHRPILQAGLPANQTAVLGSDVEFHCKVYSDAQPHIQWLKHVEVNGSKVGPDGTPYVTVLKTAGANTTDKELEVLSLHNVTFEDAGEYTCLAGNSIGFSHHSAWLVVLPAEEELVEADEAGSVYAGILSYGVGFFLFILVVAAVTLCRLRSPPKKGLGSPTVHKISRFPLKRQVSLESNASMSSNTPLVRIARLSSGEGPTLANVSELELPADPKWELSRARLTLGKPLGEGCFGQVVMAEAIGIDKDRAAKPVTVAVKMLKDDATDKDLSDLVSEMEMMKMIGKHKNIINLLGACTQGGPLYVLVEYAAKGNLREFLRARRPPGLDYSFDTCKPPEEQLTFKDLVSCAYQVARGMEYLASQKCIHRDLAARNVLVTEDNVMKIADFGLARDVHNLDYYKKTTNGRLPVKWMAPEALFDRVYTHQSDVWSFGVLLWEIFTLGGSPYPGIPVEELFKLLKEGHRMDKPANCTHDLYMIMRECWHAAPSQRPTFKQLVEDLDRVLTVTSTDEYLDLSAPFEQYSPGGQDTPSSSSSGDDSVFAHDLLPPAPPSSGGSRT
// class assignment uses phosphorylation enrichment with these ranges: low bin = under 0.6, mid bin = from 0.6 up to 0.8, high bin = 0.8 and over

>  <sequence_string>
HNVPIYEGFGL [ACTA1_Y168_A172G_YF]

>  <category>
low bin

$$$$
>  <sequence_string>
ENQEIYRKAFD [KPNA1_Y493_Q494R]

>  <category>
mid bin

$$$$
>  <sequence_string>
QRRLVYYERGA [RYR1_Y245_G248R]

>  <category>
low bin

$$$$
>  <sequence_string>
SVLVPYEPPEV [TP53_Y220_V217L]

>  <category>
high bin

$$$$
>  <sequence_string>
PSAELYSYALP [PDGFRB_Y716_N718Y]

>  <category>
high bin

$$$$
>  <sequence_string>
TTKGAYSLSVR [YES1_Y194_I198V]

>  <category>
low bin

$$$$
>  <sequence_string>
TVQVAYFTVMM [SPATA17_Y83_M86V_YF]

>  <category>
high bin

$$$$
>  <sequence_string>
MGSYNYLGFAW [SPTLC2_Y178_R183W]

>  <category>
high bin

$$$$
>  <sequence_string>
LLQAEYWHDPI [PPT1_Y185_V181L]

>  <category>
high bin

$$$$
>  <sequence_string>
RTLSEYARRHV [RERE_Y1259_P1262R]

>  <category>
low bin

$$$$
>  <sequence_string>
KPPPTYESEEE [BRD4_Y599]

>  <category>
mid bin

$$$$
>  <sequence_string>
TEAGNYKLCFD [TMED1_Y103_D102N]

>  <category>
mid bin

$$$$
>  <sequence_string>
ASFPLYEPAKM [MKI67_Y340]

>  <category>
low bin

$$$$
>  <sequence_string>
CTTLHYNFMCN [TP53_Y234_I232L_YF]

>  <category>
low bin

$$$$
>  <sequence_string>
QVKEQYQDVPM [PKP2_Y659_K654Q]

>  <category>
high bin

$$$$
>  <sequence_string>
EDASEYFENFI [PARP4_Y214_F215Y_YF]

>  <category>
high bin

$$$$
>  <sequence_string>
FMCKVYSDPQP [FGFR1_Y280]

>  <category>
high bin

$$$$
>  <sequence_string>
TMKSHYMELYD [BBS2_Y644_R643H]

>  <category>
mid bin

$$$$
>  <sequence_string>
VLTSKYPGGGG [HBA1_Y141_R142P]

>  <category>
low bin

$$$$
>  <sequence_string>
VHNLNYFKKTT [FGFR3_Y647_D646N_YF]

>  <category>
low bin

$$$$
>  <sequence_string>
DAVKHYMQFQK [CNGA2_Y395_R399Q]

>  <category>
low bin

$$$$
>  <sequence_string>
GSSSSYGQHGS [HRNR_Y517]

>  <category>
low bin

$$$$
>  <sequence_string>
AMGPVYQAAAL [HYOU1_Y421_A419P]

>  <category>
low bin

$$$$
>  <sequence_string>
GDEVEYMSVSF [GCLC_Y53_L55S]

>  <category>
high bin

$$$$
>  <sequence_string>
PGQAAYQKVVA [HBB_Y131_V127G]

>  <category>
low bin

$$$$
>  <sequence_string>
CTTTHYNFMCN [TP53_Y234_I232T_YF]

>  <category>
low bin

$$$$
>  <sequence_string>
QRIHDYFEHRF [HCN4_Y554_YF]

>  <category>
high bin

$$$$
>  <sequence_string>
DPFHVYIKNRV [KCNE3_Y95_YF]

>  <category>
mid bin

$$$$
>  <sequence_string>
FMYKVYSDPQP [FGFR1_Y280_C277Y]

>  <category>
mid bin

$$$$
>  <sequence_string>
PYGQWYESHYA [RPS8_Y113_R110G]

>  <category>
high bin

$$$$
>  <sequence_string>
SFPSTYRFERG [INPPL1_Y661_P659S_YF]

>  <category>
low bin

$$$$
>  <sequence_string>
EDGRLYAVKCS [PKMYT1_Y136_R140C]

>  <category>
mid bin

$$$$
>  <sequence_string>
PDSVDYRKKGY [CTSK_Y121]

>  <category>
mid bin

$$$$
>  <sequence_string>
GRVFVYRLSEQ [ITGAE_Y551_YF]

>  <category>
mid bin

$$$$
>  <sequence_string>
QRVLLYVQRET [GRHL3_Y518_R520Q]

>  <category>
high bin

$$$$
>  <sequence_string>
GENTMYAQVFN [LY9_Y603]

>  <category>
low bin

$$$$
>  <sequence_string>
RWQQLYDTLNA [EIF3M_Y351_Q346R]

>  <category>
high bin

$$$$
>  <sequence_string>
LVRAFYCERRW [CARD11_Y970_R975W]

>  <category>
mid bin

$$$$
>  <sequence_string>
LLTALYFISRG [KCNH2_Y780]

>  <category>
mid bin

$$$$
>  <sequence_string>
PRIHSYRGHLW [VHL_Y112_R107P]

>  <category>
low bin

$$$$
>  <sequence_string>
SLALFYRNVFH [RBL1_Y792_K794N_YF]

>  <category>
mid bin

$$$$
>  <sequence_string>
HESEIYCKVCY [CSRP3_Y57]

>  <category>
high bin

$$$$
>  <sequence_string>
QEIATYRRLLE [KRT14_Y415]

>  <category>
mid bin

$$$$
>  <sequence_string>
GIVEDYRPPLF [ACVRL1_Y421_F425L_YF]

>  <category>
mid bin

$$$$
>  <sequence_string>
NPQKSYFILLF [WAS_Y83_R86L_YF]

>  <category>
high bin

$$$$
>  <sequence_string>
MKSIKYMDKEI [CCDC60_Y41]

>  <category>
low bin

$$$$
>  <sequence_string>
IYHLSYLHNCE [PDE6B_Y227]

>  <category>
high bin

$$$$
>  <sequence_string>
GHPFAYDWISI [BEST1_Y227_L224P_YF]

>  <category>
high bin

$$$$
>  <sequence_string>
PEPTGYSAELS [EZR_Y499_A494P]

>  <category>
mid bin

$$$$
>  <sequence_string>
REEKNYKHKET [BCLAF1_Y459_L461H]

>  <category>
low bin

$$$$
>  <sequence_string>
PAQAAYQKVVA [HBB_Y131_V127A]

>  <category>
mid bin

$$$$
>  <sequence_string>
KDHPDYKFQLR [SOX10_Y171_P175L_YF]

>  <category>
mid bin

$$$$
